Hey, just so you know, these numbers are from patent US20090018134A1.

- Subject of test: mTOR (Homo sapiens, UniProt P42345)
- Construct: FLAG; made in house
- Sequence (P42345 1362-2549): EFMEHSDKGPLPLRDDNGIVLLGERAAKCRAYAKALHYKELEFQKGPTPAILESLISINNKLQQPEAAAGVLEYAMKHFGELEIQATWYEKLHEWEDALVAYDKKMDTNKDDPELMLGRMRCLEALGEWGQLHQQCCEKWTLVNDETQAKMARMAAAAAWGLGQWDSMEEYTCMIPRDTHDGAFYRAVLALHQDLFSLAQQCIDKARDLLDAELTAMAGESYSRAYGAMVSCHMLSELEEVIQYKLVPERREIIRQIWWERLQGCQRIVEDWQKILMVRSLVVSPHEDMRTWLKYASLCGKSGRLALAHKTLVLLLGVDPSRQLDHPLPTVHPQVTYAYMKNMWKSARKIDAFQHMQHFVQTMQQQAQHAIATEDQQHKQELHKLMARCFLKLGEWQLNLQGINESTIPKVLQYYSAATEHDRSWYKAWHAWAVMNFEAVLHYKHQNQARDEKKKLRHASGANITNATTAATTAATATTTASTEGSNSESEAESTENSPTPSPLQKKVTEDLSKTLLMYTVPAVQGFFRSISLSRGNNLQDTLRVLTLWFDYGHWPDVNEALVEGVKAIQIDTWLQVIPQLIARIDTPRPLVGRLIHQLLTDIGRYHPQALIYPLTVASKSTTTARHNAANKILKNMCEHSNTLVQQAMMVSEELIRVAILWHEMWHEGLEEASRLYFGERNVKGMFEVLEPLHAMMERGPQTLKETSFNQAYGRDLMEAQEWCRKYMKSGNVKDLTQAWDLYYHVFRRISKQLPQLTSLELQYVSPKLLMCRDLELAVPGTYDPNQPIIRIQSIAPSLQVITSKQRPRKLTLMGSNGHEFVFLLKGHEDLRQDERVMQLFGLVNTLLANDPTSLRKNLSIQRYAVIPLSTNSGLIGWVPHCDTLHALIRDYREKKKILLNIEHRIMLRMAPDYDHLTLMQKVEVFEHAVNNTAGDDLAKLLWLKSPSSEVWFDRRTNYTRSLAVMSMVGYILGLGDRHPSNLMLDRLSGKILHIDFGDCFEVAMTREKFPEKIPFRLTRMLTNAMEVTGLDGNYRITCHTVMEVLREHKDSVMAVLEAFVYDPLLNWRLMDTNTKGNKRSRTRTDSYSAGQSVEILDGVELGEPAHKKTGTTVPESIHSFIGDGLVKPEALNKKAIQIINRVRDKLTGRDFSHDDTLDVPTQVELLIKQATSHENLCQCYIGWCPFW
- Assay details: In Vitro mTOR Kinase Assay (Echo), Test (a)(ii)
- Format: biochemical
- Condition context: table of enzyme assay Test (a)(ii); read-out: Test (a)(ii) IC50
pIC50: −log10 of the molar value.
Binary classification by pIC50, with 8 as an inclusive lower bound for TRUE; all other cases are FALSE.

Use the examples below as a reference point.
* Cc1csc(S(=O)(=O)C2(c3cc(N4CCOC[C@@H]4C)nc(-c4ccc(NC(=O)NCCO)cc4)n3)CCCC2)n1 [Example 36dl] | TRUE
* Cc1csc(S(=O)(=O)C2(c3cc(N4CCOC[C@@H]4C)nc(-c4ccc(NC(=O)NCCO)cc4)n3)CCC2)n1 [Example 98e] | TRUE
* Cc1cc(F)ccc1S(=O)(=O)C1(c2cc(N3CCOC[C@@H]3C)nc(-c3ccc(NC(=O)NCCF)cc3)n2)CC1 [Example 82c] | FALSE
* CN1CCN(C(=O)C2(c3cc(N4CCOCC4)nc(-c4ccc(NC(=O)NCCO)cc4)n3)CC2)CC1 [Example 34d] | FALSE
* C[C@H]1COCCN1c1cc(C2(S(C)(=O)=O)CC2)nc(-c2ccc(NC(=O)NC3CC3)c(F)c2)n1 | FALSE
* CN(C)CCNC(=O)Nc1ccc(-c2nc(N3CCOCC3)cc(C3(S(C)(=O)=O)CC3)n2)cc1 [Example 12f] | FALSE
* CCNC(=S)Nc1ccc(-c2nc(N3CCOC[C@@H]3C)cc(C3(S(=O)(=O)c4ccccc4)CC3)n2)cc1 [Example 37z] | TRUE
* CC[C@H]1COCCN1c1cc(C2(S(=O)(=O)c3ccccc3)CC2)nc(-c2ccc(NC(=O)NC)cc2)n1 | TRUE

From here, focus on the item given below.
Ask: I'd appreciate it if you could say whether C[C@H]1COCCN1c1cc(C2(S(=O)(=O)c3nccs3)CC2)nc(-c2ccc(NC(=O)NCCCO)cc2)n1 [Example 66a] has pIC50 at least equal to 8.
Reply: TRUE
